# assayed target: Human PD-L1/PD-1 (Homo sapiens)
# Construct: made in house; host or cells: HEK293T
# Sequence (Q9NZQ7 with tags, fused parts or gaps): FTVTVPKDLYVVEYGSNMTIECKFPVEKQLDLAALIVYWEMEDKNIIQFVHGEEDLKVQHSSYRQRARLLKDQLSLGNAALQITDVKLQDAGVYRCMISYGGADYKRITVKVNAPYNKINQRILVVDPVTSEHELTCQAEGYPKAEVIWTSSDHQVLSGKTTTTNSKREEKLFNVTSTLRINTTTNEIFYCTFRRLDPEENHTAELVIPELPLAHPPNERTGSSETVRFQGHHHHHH
# protocol summary: HTRF PD-1-Ig/PD-L1-His binding assay (human PD-L1)
# experimental context: cluster symbol; read-out: HTRF IC50 cluster
Positions of bridges follow the written chain, without caps; N, C: chain ends. Non-standard residues stand in square brackets, D forms with d. Residues, ends and D or L forms follow the SMILES beside them. NMeF = CN[C@@H](Cc1ccccc1)C(=O)O; dHyp = O=C(O)[C@H]1C[C@H](O)CN1; NMeNle = CCCC[C@H](NC)C(=O)O; Sar = CNCC(=O)O
observed property: IC50

molecule	data value
CCCC[C@H]1C(=O)N(C)[C@@H](CCCC)C(=O)N[C@@H](CCCNC(=N)N)C(=O)N[C@H](C(=O)NCC(N)=O)CSCC(=O)N[C@@H](Cc2ccc(O)cc2)C(=O)N2CCC[C@H]2C(=O)N[C@@H](CC(N)=O)C(=O)N2CCC[C@H]2C(=O)N[C@@H](Cc2cnc[nH]2)C(=O)N[C@@H](CC(C)C)C(=O)N2CCC[C@H]2C(=O)N[C@@H](Cc2c[nH]c3ccccc23)C(=O)N[C@@H](CO)C(=O)N[C@@H](Cc2c[nH]c3ccccc23)C(=O)N1C [Example 1136] ({CH2CO}-YPNPHLPWSW[NMeNle][NMeNle]RCG-NH2; thioether N-14)	6.76 to 30.3 nM

API: the following record is the query input.
input: For CCCC[C@H]1C(=O)N2C[C@@H](O)C[C@@H]2C(=O)N[C@@H](CC(=O)O)C(=O)N[C@@H](C(C)C)C(=O)N(C)[C@@H](Cc2ccccc2)C(=O)N[C@@H](Cc2ccc(O)cc2)C(=O)N(C)CC(=O)N[C@@H](Cc2c[nH]c3ccccc23)C(=O)N[C@@H](Cc2ccc(O)cc2)C(=O)N[C@@H](CC(C)C)C(=O)N[C@H](C(=O)NCC(N)=O)CSCC(=O)N[C@@H](Cc2ccccc2)C(=O)N(C)[C@@H](Cc2ccccc2)C(=O)N1C [Example 3588] ({CH2CO}-F[NMeF][NMeNle][dHyp]DV[NMeF]Y[Sar]WYLCG-NH2; thioether N-13) , what is its reported IC50?
output: 6.76 to 30.3 nM

Taken from patent US9850283B2.
